# EXPERIMENTAL SYSTEM: UniProt:P35348
# Sequence (P35348 whole entry): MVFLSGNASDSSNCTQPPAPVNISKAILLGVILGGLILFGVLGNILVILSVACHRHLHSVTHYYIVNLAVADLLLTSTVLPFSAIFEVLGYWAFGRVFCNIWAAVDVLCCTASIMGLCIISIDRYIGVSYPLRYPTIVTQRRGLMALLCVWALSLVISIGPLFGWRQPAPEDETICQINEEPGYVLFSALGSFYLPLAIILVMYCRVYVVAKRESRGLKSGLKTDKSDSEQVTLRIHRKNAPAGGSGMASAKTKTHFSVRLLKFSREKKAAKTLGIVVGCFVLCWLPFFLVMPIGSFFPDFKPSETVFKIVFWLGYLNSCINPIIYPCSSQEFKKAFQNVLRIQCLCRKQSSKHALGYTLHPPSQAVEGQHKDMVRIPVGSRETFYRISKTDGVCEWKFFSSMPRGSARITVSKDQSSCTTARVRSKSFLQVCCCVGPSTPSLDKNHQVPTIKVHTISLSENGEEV
# Format: functional, cell-based
Where a SMILES comes first, the peptide text is derived from it.
Record form. Attribute: AC50. Fill in for each entry.

Quick check: AC50 of O=C(Cc1cccs1)N[C@@H]1C(=O)N2C(C(=O)[O-])=C(C[n+]3ccccc3)CS[C@H]12 ? > 30 µM

Quick check: AC50 of CC(C)NCC(O)COc1ccc(CC(N)=O)cc1 (stereo not drawn) ? > 30 µM

Quick check: AC50 of O=C(C[S+]([O-])Cc1ccco1)NC/C=C\COc1cc(CN2CCCCC2)ccn1 (stereo not drawn) ? > 30 µM

Quick check: AC50 of CCN(CC)C(C)C(=O)c1ccccc1 (stereo not drawn) ? > 30 µM

Quick check: AC50 of CCN(CC)CCCN(c1ccccc1)C1Cc2ccccc2C1 ? 14 µM

Quick check: AC50 of CS(=O)(=O)Nc1ccc([N+](=O)[O-])cc1Oc1ccccc1 [NIMESULIDE] ? > 30 µM

Quick check: AC50 of C[C@H](N)C(=O)N[C@@H](CCC(N)=O)C(=O)O [ALANYL GLUTAMINE] (H-Ala-Gln-OH) ? > 30 µM

Quick check: AC50 of CC1=C(CC(=O)O)c2cc(F)ccc2/C1=C\c1ccc([S+](C)[O-])cc1 (stereo not drawn) ? > 30 µM

Quick check: AC50 of CC(C)/N=c1\cc2n(-c3ccc(Cl)cc3)c3ccccc3nc-2cc1Nc1ccc(Cl)cc1 ? > 30 µM

Quick check: AC50 of Cc1nnc2n1-c1ccc(Cl)cc1C(c1ccccc1)=NC2 ? > 30 µM

Quick check: AC50 of CC(NC(C)(C)C)C(=O)c1cccc(Cl)c1 (stereo not drawn) ? > 30 µM

Quick check: AC50 of O=C1CN=C(c2ccccc2Cl)c2cc([N+](=O)[O-])ccc2N1 ? > 30 µM

Quick check: AC50 of N[C@@H](Cc1cc(I)c(Oc2cc(I)c(O)c(I)c2)c(I)c1)C(=O)O ? > 30 µM

Quick check: AC50 of CCOC(=O)C1=C(C)NC(C)=C(C(=O)OC)C1c1cccc(Cl)c1Cl (stereo not drawn) ? > 30 µM

Quick check: AC50 of C[C@@H](Cc1ccccc1)N(C)Cc1ccccc1 ? 13 µM

Quick check: AC50 of CC(C)CN(C[C@@H](O)[C@H](Cc1ccccc1)NC(=O)O[C@H]1CCOC1)S(=O)(=O)c1ccc(N)cc1 ? 12 µM

Quick check: AC50 of CC(C)(N)Cc1ccccc1 ? > 30 µM

Quick check: AC50 of CC(=O)OCC(=O)[C@@]1(O)CC[C@H]2[C@@H]3CCC4=CC(=O)CC[C@]4(C)[C@@]3(F)[C@@H](O)C[C@@]21C [FLUDROCORTISONE ACETATE] ? > 30 µM

Origin of measurements: ChEMBL document CHEMBL5291721
